TARGET_OF_ASSAY: UniProt Q16832
Sequence (Q16832 whole entry, looked up): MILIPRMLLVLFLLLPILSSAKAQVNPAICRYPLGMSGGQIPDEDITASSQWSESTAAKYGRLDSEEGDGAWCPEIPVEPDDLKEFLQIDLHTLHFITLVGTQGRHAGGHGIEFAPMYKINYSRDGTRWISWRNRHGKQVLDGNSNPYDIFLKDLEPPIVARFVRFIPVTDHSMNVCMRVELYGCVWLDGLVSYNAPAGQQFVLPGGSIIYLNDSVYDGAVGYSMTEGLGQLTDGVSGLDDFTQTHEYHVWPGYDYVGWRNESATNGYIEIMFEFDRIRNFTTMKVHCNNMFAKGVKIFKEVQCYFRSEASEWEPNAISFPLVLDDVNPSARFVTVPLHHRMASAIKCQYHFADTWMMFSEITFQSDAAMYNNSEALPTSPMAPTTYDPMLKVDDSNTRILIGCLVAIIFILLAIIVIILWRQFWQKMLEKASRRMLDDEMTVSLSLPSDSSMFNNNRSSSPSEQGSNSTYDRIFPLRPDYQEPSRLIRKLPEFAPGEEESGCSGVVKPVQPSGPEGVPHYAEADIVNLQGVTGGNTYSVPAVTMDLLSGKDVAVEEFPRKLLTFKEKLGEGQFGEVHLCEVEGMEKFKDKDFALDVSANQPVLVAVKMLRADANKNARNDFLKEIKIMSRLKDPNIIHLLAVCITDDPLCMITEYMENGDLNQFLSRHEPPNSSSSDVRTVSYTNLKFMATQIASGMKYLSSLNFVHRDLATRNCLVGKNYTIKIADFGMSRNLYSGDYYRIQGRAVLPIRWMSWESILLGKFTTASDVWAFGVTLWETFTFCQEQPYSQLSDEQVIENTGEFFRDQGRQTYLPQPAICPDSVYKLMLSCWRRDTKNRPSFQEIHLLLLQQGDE
OBSERVABLE: pKi
Lab note — pKi values are minus log10 of concentrations in M.

Enquiry: Suppose we examine the molecule COc1cc2nccc(Oc3ccc(NC(=O)Nc4cc(C)on4)c(Cl)c3)c2cc1OC ; what pKi value has been reported?
Return: 8.71

---

molecules and their reported inhibition
TARGET_OF_ASSAY: CDK6 (human)
MEASUREMENT_NOTES: Caliper, Mobility shift assay off-chip
PARTICULARS: compound 0.02 µM
Form entry: value (%) — number only.

Worked cases, inhibition given:
In [3]: df
Out[3]:
                            molecule_smiles  reading
0  CNC(=O)c1cc(Oc2ccc(NC(=O)Nc3ccc(Cl)c(C(F)(F)F)c3)cc2)ccn1      0.1
1  COc1cc2c(Oc3ccc4[nH]c(C)cc4c3F)ncnc2cc1OCCCN1CCCC1     11.4
2  Cc1ccc(Nc2nccc(N(C)c3ccc4c(C)n(C)nc4c3)n2)cc1S(N)(=O)=O      6.2

Consider now this further molecule.
Enquiry: Suppose we examine the molecule CNC(=O)c1ccccc1Sc1ccc2c(/C=C/c3ccccn3)n[nH]c2c1 ; what inhibition value has been reported?
Return: 4.4

---

TARGET_OF_ASSAY: ZAP70 (human) (UniProt P43403)
Sequence (P43403 whole entry, looked up): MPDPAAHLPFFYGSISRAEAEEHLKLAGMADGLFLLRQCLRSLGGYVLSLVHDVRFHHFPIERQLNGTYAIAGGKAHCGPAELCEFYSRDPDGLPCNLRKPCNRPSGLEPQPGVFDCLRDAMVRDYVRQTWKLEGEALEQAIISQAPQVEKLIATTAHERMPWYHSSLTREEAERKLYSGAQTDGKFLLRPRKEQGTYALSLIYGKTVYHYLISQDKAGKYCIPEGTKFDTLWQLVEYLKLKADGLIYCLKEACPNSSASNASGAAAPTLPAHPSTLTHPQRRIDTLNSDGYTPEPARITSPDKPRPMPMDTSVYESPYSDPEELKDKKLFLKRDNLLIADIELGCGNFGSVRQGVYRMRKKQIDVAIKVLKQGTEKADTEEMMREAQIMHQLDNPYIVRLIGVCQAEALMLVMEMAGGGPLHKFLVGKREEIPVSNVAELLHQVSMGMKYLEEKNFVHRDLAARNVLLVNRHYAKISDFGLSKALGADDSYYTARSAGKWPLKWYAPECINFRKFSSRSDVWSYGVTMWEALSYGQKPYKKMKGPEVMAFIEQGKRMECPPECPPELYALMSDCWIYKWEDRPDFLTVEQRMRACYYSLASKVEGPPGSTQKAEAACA
MEASUREMENT_NOTES: Caliper, Mobility shift assay off-chip
PARTICULARS: compound 0.2 µM
OBSERVABLE: inhibition
Quote the value and follow it with the unit of measurement.

Worked cases, inhibition given:
>>> df
                            molecule_smiles                 target_of_assay  observable  reading
0  CCN(CC)CCNC(=O)c1c(C)[nH]c(/C=C2\C(=O)Nc3ccc(F)cc32)c1C  ZAP70 (human) (UniProt P43403)  inhibition     6.8%
1  Cc1ccc(Nc2nccc(N(C)c3ccc4c(C)n(C)nc4c3)n2)cc1S(N)(=O)=O  ZAP70 (human) (UniProt P43403)  inhibition    13.3%
2  CNC(=O)c1cc(Oc2ccc(NC(=O)Nc3ccc(Cl)c(C(F)(F)F)c3)cc2)ccn1  ZAP70 (human) (UniProt P43403)  inhibition    19.1%

Consider now this further molecule.
Enquiry: Suppose we examine the molecule COc1cc2c(Oc3ccc4[nH]c(C)cc4c3F)ncnc2cc1OCCCN1CCCC1 ; what inhibition value has been reported?
Return: 3.4%

---

TARGET_OF_ASSAY: MAP3K5 (human) (UniProt Q99683)
MEASUREMENT_NOTES: ELISA
PARTICULARS: compound 0.2 µM
molecules and their reported inhibition
Form entry: value (%) — number only.

>>> df
                            molecule_smiles  uom  reading
0  CNC(=O)c1cc(Oc2ccc(NC(=O)Nc3ccc(Cl)c(C(F)(F)F)c3)cc2)ccn1    %      7.4

Enquiry: Suppose we examine the molecule CCN(CC)CCNC(=O)c1c(C)[nH]c(/C=C2\C(=O)Nc3ccc(F)cc32)c1C ; what inhibition value has been reported?
Return: -0.6

Enquiry: Would you mind doing COc1cc2c(Oc3ccc4[nH]c(C)cc4c3F)ncnc2cc1OCCCN1CCCC1 as well?
Return: 4

Enquiry: Would you mind doing Cc1ccc(Nc2nccc(N(C)c3ccc4c(C)n(C)nc4c3)n2)cc1S(N)(=O)=O as well?
Return: 8.3

---

TARGET_OF_ASSAY: PTK6 (human)
OBSERVABLE: Ki (µM)
Form entry: value (µM) — number only.

Enquiry: Suppose we examine the compound COc1cc2c(Oc3ccc4[nH]c(C)cc4c3F)ncnc2cc1OCCCN1CCCC1 ; what Ki value has been reported?
Return: 0.0118

---

TARGET_OF_ASSAY: SRPK3 (human) (UniProt Q9UPE1)
Sequence (Q9UPE1 whole entry, looked up): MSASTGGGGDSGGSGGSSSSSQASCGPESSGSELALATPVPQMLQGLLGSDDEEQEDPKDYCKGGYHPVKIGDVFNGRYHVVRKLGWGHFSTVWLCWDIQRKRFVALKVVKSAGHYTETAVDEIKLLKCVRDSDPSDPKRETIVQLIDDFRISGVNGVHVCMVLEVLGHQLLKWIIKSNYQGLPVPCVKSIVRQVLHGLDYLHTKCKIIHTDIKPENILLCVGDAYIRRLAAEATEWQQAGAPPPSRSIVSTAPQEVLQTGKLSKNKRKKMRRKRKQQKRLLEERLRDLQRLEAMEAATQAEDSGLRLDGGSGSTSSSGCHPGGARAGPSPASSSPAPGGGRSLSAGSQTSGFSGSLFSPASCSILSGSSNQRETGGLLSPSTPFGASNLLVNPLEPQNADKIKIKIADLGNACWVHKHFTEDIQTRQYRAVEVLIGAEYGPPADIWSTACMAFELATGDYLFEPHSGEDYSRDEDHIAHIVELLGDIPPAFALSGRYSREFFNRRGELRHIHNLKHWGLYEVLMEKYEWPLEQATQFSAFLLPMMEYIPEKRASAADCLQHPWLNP
MEASUREMENT_NOTES: Caliper, Mobility shift assay off-chip
PARTICULARS: compound 0.02 µM
compounds and their reported inhibition
Form entry: value (%) — number only.

Worked cases, inhibition given:
                            molecule_smiles  observable  reading
0  Cc1ccc(Nc2nccc(N(C)c3ccc4c(C)n(C)nc4c3)n2)cc1S(N)(=O)=O  inhibition     -1.1
1  CNC(=O)c1ccccc1Sc1ccc2c(/C=C/c3ccccn3)n[nH]c2c1  inhibition     -0.9
2  CNC(=O)c1cc(Oc2ccc(NC(=O)Nc3ccc(Cl)c(C(F)(F)F)c3)cc2)ccn1  inhibition     -0.5

Consider now this further compound.
Enquiry: Suppose we examine the compound COc1cc2c(Oc3ccc4[nH]c(C)cc4c3F)ncnc2cc1OCCCN1CCCC1 ; what inhibition value has been reported?
Return: -3.4

---

TARGET_OF_ASSAY: PDK4 (human) (UniProt Q16654)
Sequence (Q16654 whole entry, looked up): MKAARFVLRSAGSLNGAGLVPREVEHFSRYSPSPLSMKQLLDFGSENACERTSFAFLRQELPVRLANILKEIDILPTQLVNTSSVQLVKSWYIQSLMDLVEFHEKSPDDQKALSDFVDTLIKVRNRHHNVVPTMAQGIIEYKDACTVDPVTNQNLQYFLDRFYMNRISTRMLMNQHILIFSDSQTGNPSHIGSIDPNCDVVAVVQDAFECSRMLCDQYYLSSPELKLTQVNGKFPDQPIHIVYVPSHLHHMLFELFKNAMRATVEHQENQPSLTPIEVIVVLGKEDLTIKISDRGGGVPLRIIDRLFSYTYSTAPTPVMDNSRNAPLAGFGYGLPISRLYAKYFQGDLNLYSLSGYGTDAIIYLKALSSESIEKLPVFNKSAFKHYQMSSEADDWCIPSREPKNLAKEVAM
MEASUREMENT_NOTES: Caliper, Mobility shift assay off-chip
PARTICULARS: compound 0.2 µM
OBSERVABLE: inhibition (%)
Form entry: value (%) — number only.

                            molecule_smiles                target_of_assay  observable  reading
0  CNC(=O)c1cc(Oc2ccc(NC(=O)Nc3ccc(Cl)c(C(F)(F)F)c3)cc2)ccn1  PDK4 (human) (UniProt Q16654)  inhibition      3.4

Enquiry: Suppose we examine the molecule Cc1ccc(Nc2nccc(N(C)c3ccc4c(C)n(C)nc4c3)n2)cc1S(N)(=O)=O ; what inhibition value has been reported?
Return: 0.8

Enquiry: Would you mind doing COc1cc2c(Oc3ccc4[nH]c(C)cc4c3F)ncnc2cc1OCCCN1CCCC1 as well?
Return: 1.6

Enquiry: Would you mind doing CCN(CC)CCNC(=O)c1c(C)[nH]c(/C=C2\C(=O)Nc3ccc(F)cc32)c1C as well?
Return: 1.6

---

compounds and their reported inhibition
TARGET_OF_ASSAY: UniProt Q8IW41
Sequence (Q8IW41 whole entry, looked up): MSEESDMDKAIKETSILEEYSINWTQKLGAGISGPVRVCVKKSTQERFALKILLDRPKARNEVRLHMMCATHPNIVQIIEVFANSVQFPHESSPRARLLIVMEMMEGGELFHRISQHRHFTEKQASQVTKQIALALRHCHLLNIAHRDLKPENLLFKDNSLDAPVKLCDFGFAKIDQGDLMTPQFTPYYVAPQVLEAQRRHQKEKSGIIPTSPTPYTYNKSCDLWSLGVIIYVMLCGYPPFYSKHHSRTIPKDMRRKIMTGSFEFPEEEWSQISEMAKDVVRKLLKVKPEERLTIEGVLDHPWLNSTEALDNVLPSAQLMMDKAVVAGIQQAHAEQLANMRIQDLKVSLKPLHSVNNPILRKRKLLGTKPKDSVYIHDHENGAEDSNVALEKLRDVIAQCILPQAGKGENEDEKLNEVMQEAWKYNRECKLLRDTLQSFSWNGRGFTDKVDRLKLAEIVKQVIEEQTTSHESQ
MEASUREMENT_NOTES: Caliper, Mobility shift assay off-chip
PARTICULARS: compound 0.02 µM
Form entry: value (%) — number only.

>>> print(df.to_string())
                            molecule_smiles  observable  uom  reading
0  CNC(=O)c1cc(Oc2ccc(NC(=O)Nc3ccc(Cl)c(C(F)(F)F)c3)cc2)ccn1  inhibition    %     -7.4

Enquiry: Suppose we examine the compound Cc1ccc(Nc2nccc(N(C)c3ccc4c(C)n(C)nc4c3)n2)cc1S(N)(=O)=O ; what inhibition value has been reported?
Return: 3.2

Enquiry: Would you mind doing COc1cc2c(Oc3ccc4[nH]c(C)cc4c3F)ncnc2cc1OCCCN1CCCC1 as well?
Return: 2

Enquiry: Would you mind doing CNC(=O)c1ccccc1Sc1ccc2c(/C=C/c3ccccn3)n[nH]c2c1 as well?
Return: 1.6

---

TARGET_OF_ASSAY: UniProtKB Q9BXA7
Sequence (Q9BXA7 whole entry, looked up): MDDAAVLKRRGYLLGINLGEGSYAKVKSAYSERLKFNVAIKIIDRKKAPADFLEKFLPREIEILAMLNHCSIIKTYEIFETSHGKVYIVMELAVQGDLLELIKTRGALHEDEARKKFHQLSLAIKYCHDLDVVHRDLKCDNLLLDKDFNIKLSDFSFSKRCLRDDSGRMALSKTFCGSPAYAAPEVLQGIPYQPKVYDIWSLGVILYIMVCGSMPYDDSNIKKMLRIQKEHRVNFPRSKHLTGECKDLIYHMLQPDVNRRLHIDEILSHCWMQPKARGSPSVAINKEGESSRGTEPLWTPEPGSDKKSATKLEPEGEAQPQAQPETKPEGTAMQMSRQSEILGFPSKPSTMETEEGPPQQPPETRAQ
MEASUREMENT_NOTES: Caliper, Mobility shift assay off-chip
PARTICULARS: compound 0.2 µM
OBSERVABLE: inhibition (%)
Form entry: value (%) — number only.

                            molecule_smiles  reading
0  Cc1ccc(Nc2nccc(N(C)c3ccc4c(C)n(C)nc4c3)n2)cc1S(N)(=O)=O     -1.7
1  COc1cc2c(Oc3ccc4[nH]c(C)cc4c3F)ncnc2cc1OCCCN1CCCC1     -3.6
2  CNC(=O)c1cc(Oc2ccc(NC(=O)Nc3ccc(Cl)c(C(F)(F)F)c3)cc2)ccn1     -2.9

Consider now this further compound.
Enquiry: Suppose we examine the compound CCN(CC)CCNC(=O)c1c(C)[nH]c(/C=C2\C(=O)Nc3ccc(F)cc32)c1C ; what inhibition value has been reported?
Return: 63.2

---

TARGET_OF_ASSAY: PRKD1 (human) (UniProt Q15139)
Sequence (Q15139 whole entry, looked up): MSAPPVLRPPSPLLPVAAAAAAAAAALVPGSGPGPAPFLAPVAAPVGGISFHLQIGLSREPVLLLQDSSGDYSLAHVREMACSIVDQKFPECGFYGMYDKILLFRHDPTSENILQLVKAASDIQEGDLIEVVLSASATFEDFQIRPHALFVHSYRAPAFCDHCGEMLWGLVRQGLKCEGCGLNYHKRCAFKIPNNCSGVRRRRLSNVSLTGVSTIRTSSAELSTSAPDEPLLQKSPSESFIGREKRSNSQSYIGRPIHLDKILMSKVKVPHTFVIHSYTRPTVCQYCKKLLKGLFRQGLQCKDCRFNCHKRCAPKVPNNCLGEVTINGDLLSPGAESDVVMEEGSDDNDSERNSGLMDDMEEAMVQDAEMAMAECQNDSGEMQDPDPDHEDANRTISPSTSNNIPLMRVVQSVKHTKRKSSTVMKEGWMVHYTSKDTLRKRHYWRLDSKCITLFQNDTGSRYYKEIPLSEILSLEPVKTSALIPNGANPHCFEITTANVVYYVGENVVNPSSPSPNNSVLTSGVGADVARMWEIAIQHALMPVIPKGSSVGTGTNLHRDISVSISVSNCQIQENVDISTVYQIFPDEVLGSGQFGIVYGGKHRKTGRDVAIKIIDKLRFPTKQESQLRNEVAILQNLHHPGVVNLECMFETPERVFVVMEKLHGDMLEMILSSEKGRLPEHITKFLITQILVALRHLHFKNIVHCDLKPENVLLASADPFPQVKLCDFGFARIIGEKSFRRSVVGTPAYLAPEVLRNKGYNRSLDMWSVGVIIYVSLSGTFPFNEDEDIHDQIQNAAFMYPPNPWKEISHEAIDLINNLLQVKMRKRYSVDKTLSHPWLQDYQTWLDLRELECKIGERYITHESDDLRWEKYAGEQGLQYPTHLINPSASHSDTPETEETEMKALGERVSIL
MEASUREMENT_NOTES: Caliper, Mobility shift assay off-chip
PARTICULARS: compound 0.02 µM
OBSERVABLE: inhibition

Worked cases, inhibition given:
>>> df
                            molecule_smiles                 target_of_assay  observable  reading
0  Cc1ccc(Nc2nccc(N(C)c3ccc4c(C)n(C)nc4c3)n2)cc1S(N)(=O)=O  PRKD1 (human) (UniProt Q15139)  inhibition    -1.1%
1  COc1cc2c(Oc3ccc4[nH]c(C)cc4c3F)ncnc2cc1OCCCN1CCCC1  PRKD1 (human) (UniProt Q15139)  inhibition    -1.3%
2  CNC(=O)c1ccccc1Sc1ccc2c(/C=C/c3ccccn3)n[nH]c2c1  PRKD1 (human) (UniProt Q15139)  inhibition    -2.2%

Consider now this further compound.
Enquiry: Suppose we examine the compound CNC(=O)c1cc(Oc2ccc(NC(=O)Nc3ccc(Cl)c(C(F)(F)F)c3)cc2)ccn1 ; what inhibition value has been reported?
Return: -1.1%

---

TARGET_OF_ASSAY: UniProt:Q08881
Sequence (Q08881 whole entry, looked up): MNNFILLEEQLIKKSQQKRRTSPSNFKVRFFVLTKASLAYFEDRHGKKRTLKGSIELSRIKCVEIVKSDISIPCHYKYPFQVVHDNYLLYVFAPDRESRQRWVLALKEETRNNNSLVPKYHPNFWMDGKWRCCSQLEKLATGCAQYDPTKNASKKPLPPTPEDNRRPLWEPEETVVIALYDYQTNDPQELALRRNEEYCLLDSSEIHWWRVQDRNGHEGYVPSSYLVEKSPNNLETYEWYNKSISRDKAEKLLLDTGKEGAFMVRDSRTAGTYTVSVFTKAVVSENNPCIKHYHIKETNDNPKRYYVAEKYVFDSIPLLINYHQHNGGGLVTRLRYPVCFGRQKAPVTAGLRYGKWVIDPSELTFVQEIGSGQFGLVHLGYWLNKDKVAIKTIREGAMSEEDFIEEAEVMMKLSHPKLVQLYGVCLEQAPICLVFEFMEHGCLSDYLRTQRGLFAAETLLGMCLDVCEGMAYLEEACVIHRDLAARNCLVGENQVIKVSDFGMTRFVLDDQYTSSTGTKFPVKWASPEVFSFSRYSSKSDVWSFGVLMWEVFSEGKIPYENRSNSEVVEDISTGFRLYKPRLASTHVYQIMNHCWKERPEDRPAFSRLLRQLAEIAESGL
MEASUREMENT_NOTES: Caliper, Mobility shift assay off-chip
PARTICULARS: compound 0.02 µM
compounds and their reported inhibition
Form entry: value (%) — number only.

Worked cases, inhibition given:
>>> print(df.to_string())
                            molecule_smiles  target_of_assay  reading
0  CNC(=O)c1ccccc1Sc1ccc2c(/C=C/c3ccccn3)n[nH]c2c1   UniProt:Q08881      1.9
1  Cc1ccc(Nc2nccc(N(C)c3ccc4c(C)n(C)nc4c3)n2)cc1S(N)(=O)=O   UniProt:Q08881        7
2  CNC(=O)c1cc(Oc2ccc(NC(=O)Nc3ccc(Cl)c(C(F)(F)F)c3)cc2)ccn1   UniProt:Q08881     -2.9

Enquiry: Suppose we examine the compound COc1cc2c(Oc3ccc4[nH]c(C)cc4c3F)ncnc2cc1OCCCN1CCCC1 ; what inhibition value has been reported?
Return: 6.7

Data credit: the kinase profiling compilation of Christmann-Franck et al. (2016)
